target: Voltage-gated proton channel Hv1 (Mus musculus, UniProt Q3U2S8); construct: endogenous Hv1 in BV2 microglial cells; assay: whole-cell patch clamp at +[…] mV in BV2 cells (activator); BCECF pH-recovery assay, effect abolished by Hv1 shRNA
measuredParameter: EC50 (µM)

compound	measuredResult
O=C(CC1Sc2ccccc2NC1=O)Nc1ccccc1Cl (stereo not shown)	8.41

----------
Target: Voltage-gated proton channel Hv1 (Mus musculus, UniProt Q3U2S8)
Construct: endogenous Hv1 in BV2 microglial cells
Sequence (Q3U2S8 1-269): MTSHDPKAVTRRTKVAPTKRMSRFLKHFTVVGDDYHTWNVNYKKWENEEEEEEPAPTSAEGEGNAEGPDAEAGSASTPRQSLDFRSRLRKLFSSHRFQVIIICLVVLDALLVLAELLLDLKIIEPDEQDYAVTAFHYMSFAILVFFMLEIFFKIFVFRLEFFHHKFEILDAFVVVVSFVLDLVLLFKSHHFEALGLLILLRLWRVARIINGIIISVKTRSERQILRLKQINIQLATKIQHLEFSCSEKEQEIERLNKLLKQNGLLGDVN
Assay: whole-cell patch clamp at +[…] mV in BV2 cells; BCECF pH-recovery assay, effect abolished by Hv1 shRNA
pIC50: −log10 of the molar value.
measuredParameter: pIC50

molecule	targetSystem	measuredParameter	measuredResult
O=C(CC1Sc2ccccc2NC1=O)Nc1ccc(Cl)cc1 (stereo not shown) [YHV98-4]	Voltage-gated proton channel Hv1 (Mus musculus, UniProt Q3U2S8)	pIC50	5.59
